Here, each record is paired with measured PBM binding z-score data.
# Tested on: LXRb:RXRa (NR concentration 270 nM, RXRa partner concentration 90 nM)
# Protocol summary: PBM binding z-score (relative to random genomic background probes); higher = stronger binding; sequences stand for … in GC…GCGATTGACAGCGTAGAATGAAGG

Please review the following examples before continuing.
Sequence record	Readout value
TCTCGGAGGAAACGAAGGTCAGAGCTTTCCAGAG	1.02
GCAGACAGGTGAAACACAGGTAACTCAGGGTGGC	-0.415

// query Report PBM binding z-score, nothing else, for this sequence: `ACCAGCAGGCCAAGTTTGGGTCACTCAAACAAAG`
// result 0.635

// query Report PBM binding z-score, nothing else, for this sequence: `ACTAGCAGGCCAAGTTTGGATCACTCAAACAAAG`
// result -0.541

// query Report PBM binding z-score, nothing else, for this sequence: `CTAGCAAGGTGAACAAGGTCGTTGATTACTATTC`
// result 1.45

// query Report PBM binding z-score, nothing else, for this sequence: `ACTAGTTTGTCAGCTGAGGTCACACACAATTCGG`
// result 3.67

// query Report PBM binding z-score, nothing else, for this sequence: `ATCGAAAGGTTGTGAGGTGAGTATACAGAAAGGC`
// result 0.771

// query Report PBM binding z-score, nothing else, for this sequence: `TCTAGTTGGGCAAAGGTCACACACTCGAAATGCG`
// result 5.08

// query Report PBM binding z-score, nothing else, for this sequence: `TCTAGTTGGTCAAAGGTCATACACTCGAAATGCG`
// result 5.62

* * *

# Test system: PPARg:RXRa 30nM:10nM, anti-RXR (NR concentration 30 nM, RXRa partner concentration 10 nM)
# Protocol summary: PBM binding z-score (relative to random genomic background probes); higher = stronger binding; sequences stand for … in GC…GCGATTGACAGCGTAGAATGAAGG
Each record gets a class by PBM binding z-score: low: < 0.5; middle: ≥ 0.5 and < 3; high: ≥ 3

The following sequences have reported results that may help.
Sequence record	Class assignment
CCTTACGGGACAAGGTTATAGCACGGGTGGTACG	low
TATACAGGGTCAAAGGCCAGAGAACGAATGTCGA	high
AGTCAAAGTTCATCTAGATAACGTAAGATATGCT	high
TCTTGTAGATCAAGCAGGTAAAGAAAGCCTGAGT	middle

// query Category of `CCTACTGGGCCACGCAAGGTCATTGATTCAGTGA` :
// result middle

// query Category of `ATCGAAAGGTCGAGGAGAGTATAGAGAAAGGGAA` :
// result middle

// query Category of `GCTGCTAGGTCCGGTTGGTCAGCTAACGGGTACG` :
// result low

// query Category of `CCCAGCAGGCCAGGGTCACTCAAGCATTTCGCTT` :
// result low

// query Category of `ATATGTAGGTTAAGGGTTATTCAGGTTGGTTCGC` :
// result high

// query Category of `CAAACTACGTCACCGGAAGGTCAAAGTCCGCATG` :
// result low

// query Category of `GTTCGGAGGACAAGGTCAGAGCTTTGTCCGTAGA` :
// result low

// query Category of `TCATATAGGTAAAAGGTGAAAGTGGGTGTGGTAA` :
// result high

// query Category of `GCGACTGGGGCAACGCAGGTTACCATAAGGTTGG` :
// result low

// query Category of `CCTGCGAGGTCAATGGTCAGCTAAAGCAGCTCGC` :
// result middle

// query Category of `TCTGCTAGGTGAACGATGGTCAGCTAATCTGCTA` :
// result middle

// query Category of `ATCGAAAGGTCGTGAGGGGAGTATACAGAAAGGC` :
// result middle

// query Category of `GCTATTAGTTGAAAGGGCTACCGAATGATTCTCG` :
// result low

// query Category of `CAACCTAGGTCAAAGGTCAAAGTCGAGCCAACCA` :
// result high

// query Category of `ATCGAAAGGTCCAGGTGAGTATAGAGAAAGGGAA` :
// result low

// query Category of `CAAACTAGGTCGAAGGTCAAAGTCGAGCCAACCA` :
// result high

// query Category of `CAAACTAGGTCAATGTCAAAGTCGGTTTGTGCCA` :
// result high

// query Category of `CCTACTTGGCCACGAAAGGTCATTGATTCAGTGA` :
// result middle

// query Category of `ATACGTAGGTTAGCTGGGGTCATTCAGACTAGGC` :
// result low

// query Category of `TCTAGTTGGTCAAAGGTCACACATTCGAAATGCG` :
// result high

// query Category of `TCATATAGGTAAACAGTTGAAAGTCCGTAAGTTA` :
// result high
